- test.description: Octanol-phosphate buffer partition coefficient, log D of the compound at 100 uM at pH 7.4 at RT after 1 hr by shake flask method
- Assay type: physicochemical
metric.name: logD at 1 h, 100 µM
Output spec: single numeric token, no unit.

Prompt: Recorded logD at 1 h, 100 µM for O=C(O)Cn1c2ccccc2c2nnc(S)nc21 , please?
Completion: -1.9

====

- assayed.system: UniProt P07943
- test.description: Inhibition of Wistar rat lens aldose reductase using D,L-glyceraldehyde as substrate incubated for 1 min measured for 4 mins by spectrophotometry
- reported.conditions: read-out: IC50
Reported IC50 by item:
Please give the number followed by its unit.

Consider the following illustrative entries.
>>> print(df.to_string())
                                   compound  assayed_system  metric_name   result
0  O=C(O)Cn1cc(Cc2nc3c(F)c(F)cc(F)c3s2)c2ccccc21 [LIDORESTAT]  UniProt P07943         IC50     5 nM
1    O=C(O)Cn1c2ccccc2c2nnc(Sc3ccccc3F)nc21  UniProt P07943         IC50  2240 nM

Prompt: Recorded IC50 for O=C(O)Cn1c2ccccc2c2nc3ccccc3nc21 , please?
Completion: 2750 nM
